Reference source: patent US11566007B2

Catalogue of IC50 readings, one per entry.
# TESTED ON: NRAS Q61K (Homo sapiens (Human), UniProt P01111+P62937, Q61K)
# Sequence (P01111 whole entry Q61K): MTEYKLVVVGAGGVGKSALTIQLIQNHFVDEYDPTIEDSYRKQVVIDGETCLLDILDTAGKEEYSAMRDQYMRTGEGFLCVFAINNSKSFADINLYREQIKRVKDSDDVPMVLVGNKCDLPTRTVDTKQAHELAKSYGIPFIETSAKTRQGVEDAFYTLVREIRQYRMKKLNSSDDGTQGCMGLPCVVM
# Sequence (P62937 whole entry): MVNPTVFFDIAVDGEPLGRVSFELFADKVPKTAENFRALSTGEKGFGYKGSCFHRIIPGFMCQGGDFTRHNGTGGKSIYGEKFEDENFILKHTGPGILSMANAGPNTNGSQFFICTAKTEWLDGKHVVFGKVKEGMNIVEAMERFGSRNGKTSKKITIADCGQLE
# PROTOCOL: Ras-Raf (BRAF RBD) disruption / FRET / MOA assay, NRAS Q61K
# Assay type: biochemical
# TEST CONTEXT: NRAS Q61K; Ras-Raf disruption/FRET/MOA assay; read-out: IC50* NRAS Q61K FRET data

C=CC(=O)N1CC(N(C)C(=O)N(C)[C@H](C(=O)N[C@H]2Cc3nc(cs3)-c3ccc4c(c3)c(c(-c3cccnc3[C@H](C)OC)n4CC(F)(F)F)CC(C)(C)COC(=O)[C@@H]3CCCN(N3)C2=O)C(C)C)C1 (atropisomer, axis not shown) [Example A711]: 10 to 100 nM

Could you share which IC50 value was measured for C=CS(=O)(=O)N1CCC(C(=O)N(C)[C@H](C(=O)N[C@H]2Cc3nc(cs3)-c3ccc4c(c3)c(c(-c3cncnc3)n4CC)CC(C)(C)COC(=O)[C@@H]3CCCN(N3)C2=O)C(C)C)C1 (single isomer, unassigned) [Example A170] ?
> 10000 nM

Could you share which IC50 value was measured for CCn1c(-c2cccnc2[C@H](C)OC)c2c3cc(ccc31)-c1cccc(c1)C[C@H](NC(=O)[C@H](C(C)C)N1CO[C@@]3(CCN(C(=O)C#CC(C)(C)N4CCC4)C3)C1=O)C(=O)N1CCC[C@H](N1)C(=O)OCC(C)(C)C2 (atropisomer, axis not shown) [Example A733] ?
> 10000 nM

Could you share which IC50 value was measured for CO[C@@H](C)c1ncccc1-c1c2c3cc(ccc3n1CC(F)(F)F)-c1cccc(c1)C[C@H](NC(=O)[C@@H](COC1CN(C(=O)C#CC3(C)OCCO3)C1)C(C)C)C(=O)N1CCC[C@H](N1)C(=O)OCC(C)(C)C2 (atropisomer, axis not shown) [Example A703] ?
> 10000 nM

Could you share which IC50 value was measured for CCn1c(-c2cccnc2[C@H](C)OC)c2c3cc(ccc31)-c1csc(n1)C[C@H](NC(=O)[C@H](C(C)C)N(C)C(=O)N1CCN(C(=O)/C=C/CN3CCOCC3)C3(CC3)C1)C(=O)N1CCC[C@H](N1)C(=O)OCC(C)(C)C2 (atropisomer, axis not shown) [Example A665] ?
10 to 100 nM

Could you share which IC50 value was measured for CO[C@@H](C)c1ncccc1-c1c2c3cc(ccc3n1CC(F)(F)F)-c1csc(n1)C[C@H](NC(=O)CCOC1CN(C(=O)C#CC(C)(C)N3CCC3)C1)C(=O)N1CCC[C@H](N1)C(=O)OCC(C)(C)C2 (atropisomer, axis not shown) [Example A363] ?
1000 to 10000 nM

Could you share which IC50 value was measured for C=CC(=O)N(C)CCN1CCN(C(=O)N(C)[C@H](C(=O)N[C@H]2Cc3cccc(c3)-c3ccc4c(c3)c(c(-c3cccnc3[C@H](C)OC)n4CC)CC(C)(C)COC(=O)[C@@H]3CCCN(N3)C2=O)C(C)C)C[C@@H]1C (atropisomer, axis not shown) [Example A570] ?
100 to 1000 nM

Could you share which IC50 value was measured for C=CC(=O)N1CCOC2(CCN(C(=O)N(C)[C@H](C(=O)N[C@H]3Cc4cccc(n4)-c4ccc5c(c4)c(c(-c4cccnc4[C@H](C)OC)n5CC(F)(F)F)CC(C)(C)COC(=O)[C@@H]4CCCN(N4)C3=O)C(C)C)CC2)C1 (atropisomer, axis not shown) [Example A607] ?
100 to 1000 nM
